test system: blackgrass (Alopecurus myosuroides); experiment: Test B postemergence; format: in vivo; details: Alopecurus myosuroides, post-emergence, 500 g ai/ha, scale 0 to 100, read-out: Plant response rating, Blackgrass
measure: pest or weed control at 500 g/ha (%)

INSERT INTO assay_data (molecule_smiles, tested_on, reading) VALUES
  ('CCOC(=O)c1nc(-c2ccccc2)nc(N)c1Br', 'blackgrass (Alopecurus myosuroides)', 0),
  ('COC(=O)c1nc(C2CC2)nc(NO)c1Br', 'blackgrass (Alopecurus myosuroides)', 70),
  ('COC(=O)c1nc(C2CC2)nc(N)c1Cl', 'blackgrass (Alopecurus myosuroides)', 80),
  ('Nc1nc(C2CC2)nc(C(=O)OCc2ccccc2)c1Br', 'blackgrass (Alopecurus myosuroides)', 80),
  ('COC(=O)c1nc(C2CC2)nc(N)c1Br', 'blackgrass (Alopecurus myosuroides)', 80),
  ('CNc1nc(C2CC2)nc(C(=O)OC)c1Br', 'blackgrass (Alopecurus myosuroides)', 80),
  ('COC(=O)c1nc(C2CC2)nc(N)c1I', 'blackgrass (Alopecurus myosuroides)', 80),
  ('COC(=O)c1nc(C(C)C)nc(N)c1Br', 'blackgrass (Alopecurus myosuroides)', 50),
  ('CCOC(=O)c1nc(C2CC2)nc(NN)c1Br', 'blackgrass (Alopecurus myosuroides)', 60);

----------
tested on: goosegrass (Eleusine indica); assay: Test C pre/postemergence; assay type: in vivo; conditions: Preemergence, 250 g ai/ha; scale 0 to 100
measure: Plant response rating, Goosegrass

INSERT INTO assay_data (compound, reading) VALUES
  ('CN(C)N=Cc1nc(C2CC2)nc(N)c1Br', 0),
  ('CCCCOC(=O)c1nc(C2CC2)nc(N)c1Br', 0),
  ('COC(=O)c1nc(C2CC2C)nc(N)c1Br (stereo not shown)', 0),
  ('CNN=Cc1nc(C2CC2)nc(N)c1Br', 0);

----------
Listed here: items and their measured Plant response rating, Morningglory.
tested on: morningglory (Ipomoea coccinea); experiment: Test C pre/postemergence; type: in vivo; details: Preemergence, 500 g ai/ha; scale 0 to 100
measure: Plant response rating, Morningglory

INSERT INTO results (compound, measure, reading) VALUES
  ('Nc1nc(C2CC2)nc(C=NO)c1Br [Compound 27]', 'Plant response rating, Morningglory', 100),
  ('CCOC(=O)Cc1nc(C2CC2)nc(N=CN(C)C)c1Br [Compound 33]', 'Plant response rating, Morningglory', 95),
  ('CCOC(=O)c1nc(C2CC2)nc(N=CN(C)C)c1Br [Compound 40]', 'Plant response rating, Morningglory', 100),
  ('CNN=Cc1nc(C2CC2)nc(N)c1Br [Compound 49]', 'Plant response rating, Morningglory', 100),
  ('CN(C)N=Cc1nc(C2CC2)nc(N)c1Br [Compound 50]', 'Plant response rating, Morningglory', 100);

----------
test system: rice (Oryza sativa); assay: Test B flooded paddy test; assay type: in vivo; details: Flood, 500 g ai/ha; scale 0 to 100
measure: Plant response rating, Rice

INSERT INTO results (molecule_smiles, tested_on, measure, reading) VALUES
  ('CCOC(=O)c1nc(-c2ccc(I)cc2)nc(N)c1Cl', 'rice (Oryza sativa)', 'Plant response rating, Rice', 0),
  ('COC(=O)c1nc(-c2ccc(F)cc2)nc(N)c1Br', 'rice (Oryza sativa)', 'Plant response rating, Rice', 0),
  ('Nc1nc(-c2ccc(Br)cc2)nc(C(=O)O)c1Br', 'rice (Oryza sativa)', 'Plant response rating, Rice', 40),
  ('COC(=O)c1nc(-c2ccc(Cl)cc2)nc(N)c1Br', 'rice (Oryza sativa)', 'Plant response rating, Rice', 0),
  ('COC(=O)c1nc(-c2ccc(Br)cc2)nc(N)c1Br', 'rice (Oryza sativa)', 'Plant response rating, Rice', 0),
  ('CCCCOC(=O)c1nc(C2CC2)nc(N)c1Cl', 'rice (Oryza sativa)', 'Plant response rating, Rice', 50),
  ('CCOC(=O)c1nc(-c2ccc(C(F)(F)F)cc2)nc(N)c1Br', 'rice (Oryza sativa)', 'Plant response rating, Rice', 0);

----------
test system: morningglory (Ipomoea coccinea); test: Test C pre/postemergence; type: in vivo; settings: Preemergence, 62 g ai/ha; scale 0 to 100, 0 no effect, 100 complete control
measure: Plant response rating, Morningglory

INSERT INTO assay_data (molecule, reading) VALUES
  ('CCOC(=O)Cc1nc(C2CC2)nc(N)c1Br [Compound 12]', 60),
  ('CNN=Cc1nc(C2CC2)nc(N)c1Br [Compound 49]', 90),
  ('COCc1nc(C2CC2)nc(N)c1Br [Compound 11]', 0),
  ('COC(=O)CNc1nc(C2CC2)nc(C(=O)OC)c1Br [Compound 10]', 0),
  ('CC(C)COC(=O)c1nc(C2CC2)nc(N)c1Br [Compound 17]', 95);

----------
test system: pigweed (Amaranthus retroflexus); assay: Test B pre/postemergence; type: in vivo; conditions: Postemergence, 125 g ai/ha; scale 0 to 100 (0 no effect, 100 complete control)
measure: Pigweed plant response rating

INSERT INTO assay_data (molecule, measure, reading) VALUES
  ('CCCCOC(=O)c1nc(C2CC2)nc(N)c1Cl [Compound 76]', 'Pigweed plant response rating', 100),
  ('CON=Cc1nc(C2CC2)nc(N)c1Br [Compound 48]', 'Pigweed plant response rating', 60),
  ('CCOC(=O)C(OC(C)=O)c1nc(C2CC2)nc(N)c1Br (stereo not shown) [Compound 47]', 'Pigweed plant response rating', 70),
  ('Nc1nc(-c2ccc(Br)cc2)nc(C(=O)O)c1Br [Compound 136]', 'Pigweed plant response rating', 100),
  ('COC(=O)c1nc(-c2ccc(Cl)cc2)nc(N)c1Br [Compound 83]', 'Pigweed plant response rating', 100),
  ('COCc1nc(C2CC2)nc(N)c1Br [Compound 11]', 'Pigweed plant response rating', 80),
  ('CN(C)N=Cc1nc(C2CC2)nc(N)c1Br [Compound 50]', 'Pigweed plant response rating', 80),
  ('COC(=O)c1nc(-c2ccc(Br)cc2)nc(N)c1Br [Compound 129]', 'Pigweed plant response rating', 100),
  ('CCOC(=O)Cc1nc(C2CC2)nc(N)c1Br [Compound 12]', 'Pigweed plant response rating', 50),
  ('Nc1nc(C2CC2)nc(C(=O)[O-])c1Br.[Na+] [Compound 113]', 'Pigweed plant response rating', 90);

----------
Listed here: items and their measured Oat, Wild plant response rating.
test system: wild oat (Avena fatua); assay: Test B postemergence; format: in vivo; details: 125 g ai/ha, scale 0 to 100 (0 no effect, 100 complete control)
measure: Oat, Wild plant response rating

INSERT INTO results (molecule_smiles, measure, reading) VALUES
  ('CCOC(=O)Cc1nc(C2CC2)nc(N=CN(C)C)c1Br', 'Oat, Wild plant response rating', 20),
  ('Nc1nc(C2CC2)nc(C=NO)c1Br', 'Oat, Wild plant response rating', 20),
  ('CCCOC(=O)c1nc(C2CC2)nc(N)c1Cl', 'Oat, Wild plant response rating', 60),
  ('CCOC(=O)Cc1nc(C2CC2)nc(N)c1Br', 'Oat, Wild plant response rating', 0),
  ('CCOC(=O)c1nc(C2CC2)nc(NOCc2ccccc2)c1Br', 'Oat, Wild plant response rating', 0),
  ('CCOC(=O)Cc1nc(-c2ccc(Cl)cc2)nc(N)c1Br', 'Oat, Wild plant response rating', 0),
  ('Nc1nc(-c2ccc(Cl)cc2)nc(C(=O)[O-])c1Cl.[Na+]', 'Oat, Wild plant response rating', 50),
  ('Nc1nc(C2CC2)nc(C(=O)O)c1Br', 'Oat, Wild plant response rating', 0),
  ('CNN=Cc1nc(C2CC2)nc(N)c1Br', 'Oat, Wild plant response rating', 30),
  ('Nc1nc(-c2ccc(Cl)cc2)nc(C(=O)O)c1Br', 'Oat, Wild plant response rating', 50);

----------
Listed here: items and their measured Plant response rating, Foxtail, Giant.
tested on: giant foxtail (Setaria faberi); assay: Test A pre/postemergence; format: in vivo; conditions: Postemergence, 125 g ai/ha; 0 to 100 scale (0 no effect, 100 complete control)
measure: Plant response rating, Foxtail, Giant

INSERT INTO results (compound, reading) VALUES
  ('COC(=O)COc1nc(-c2ccc(Cl)cc2)nc(N)c1Cl', 0),
  ('CCOC(=O)c1nc(-c2cc(Br)cc(OC)c2)nc(N)c1Cl', 0),
  ('COC(=O)c1nc(-c2ccc([S+](C)[O-])cc2)nc(N)c1Cl (stereo not drawn)', 0);

----------
system: giant foxtail (Setaria faberi); assay: Test A pre/postemergence; assay type: in vivo; details: Setaria faberi, post-emergence, 240 h, Postemergence, 125 g ai/ha; 0 to 100 scale (0 no effect, 100 complete control); read-out: Plant response rating, Foxtail, Giant
measure: pest or weed control at 125 g/ha (%)

INSERT INTO measurements (compound, measure, reading) VALUES
  ('Nc1nc(-c2ccc(Cl)cc2)nc(C(=O)O)c1Cl [Compound 65]', 'pest or weed control at 125 g/ha', 85),
  ('Nc1nc(C2CC2)nc(C(=O)[O-])c1Br.[Na+] [Compound 113, monosodium salt]', 'pest or weed control at 125 g/ha', 65),
  ('CCOC(=O)c1nc(-c2ccc3c(c2)OCO3)nc(N)c1Br [Compound 68]', 'pest or weed control at 125 g/ha', 0),
  ('CNc1nc(C2CC2)nc(C(=O)OC)c1Cl [Compound 79]', 'pest or weed control at 125 g/ha', 80),
  ('Nc1nc(C2CC2)nc(C(=O)OCc2ccccc2)c1Cl [Compound 78]', 'pest or weed control at 125 g/ha', 70),
  ('COC(=O)c1nc(-c2ccc(Cl)cc2)nc(N)c1Cl [Compound 58]', 'pest or weed control at 125 g/ha', 0);
